# Settings: human gut metagenome, 24 h, 2 µM; further: call rule not given here
Quantity: Bacterial Biotransformation

The cases that follow already have their Bacterial Biotransformation on record.
- Compound: "CC(C)c1c(CN(C)C(C)Cc2ccccc2)n(C)n(-c2ccccc2)c1=O (stereo not drawn)"
  Bacterial Biotransformation: "Compound metabolized"
- Compound: "N#Cc1ccc2[nH]cc(CCCCN3CCN(c4ccc5oc(C(N)=O)cc5c4)CC3)c2c1"
  Bacterial Biotransformation: "Compound metabolized"
- Compound: "O=C1CC2(CCCC2)CC(=O)N1CCCCN1CCN(c2ncccn2)CC1"
  Bacterial Biotransformation: "Compound metabolized"
- Compound: "COc1cc(NC(C)CCCN)c2ncccc2c1.O=P(O)(O)O.O=P(O)(O)O (stereo not drawn) [PRIMAQUINE PHOSPHATE]"
  Bacterial Biotransformation: "Compound NOT metabolized"
- Compound: "CCS(=O)(=O)CCn1c([N+](=O)[O-])cnc1C"
  Bacterial Biotransformation: "Compound metabolized"
- Compound: "Cc1cc2c(s1)Nc1ccccc1N=C2N1CCN(C)CC1"
  Bacterial Biotransformation: "Compound NOT metabolized"
- Compound: "CCCCCNC(=N)N/N=C/c1c[nH]c2ccc(OC)cc12.O=C(O)/C=C\\C(=O)O [TEGASEROD MALEATE]"
  Bacterial Biotransformation: "Compound NOT metabolized"

Would you kindly look at the next entry?
Please fill in: Bacterial Biotransformation reported for CCN1CCCC1CNC(=O)c1cc(S(=O)(=O)CC)c(N)cc1OC (stereo not drawn) [AMISULPRIDE] = Compound metabolized

Just for reference, ChEMBL document CHEMBL5724914 is where these values come from.
